A collection of molecules and their measured cell viability
System: MOLM1 and UCSD/AML1 (averaged)
TEST: cell viability relative to DMSO control (POC); higher = less growth inhibition
CONDITION NOTES: 1 µM; 72 h
Screen size: about 3,000 compounds; about 45 (2%) showed an effect of 50% or more. The sample holds strong results, similar compounds and a random draw of the others, so the mix is not that of the screen.
Give just the numeric value; % need not be written.

[
  {
    "MOLECULE": "COc1ccc(C(=O)c2sc(Nc3ccc(F)cc3)nc2N)cc1OC",
    "TEST SYSTEM": "MOLM1 and UCSD/AML1 (averaged)",
    "ENDPOINT VALUE": 101
  },
  {
    "MOLECULE": "CCOC(=O)C1=C(C)N(C)C(=O)NC1c1cc(Br)c(O)c(OC)c1 (stereo not drawn)",
    "TEST SYSTEM": "MOLM1 and UCSD/AML1 (averaged)",
    "ENDPOINT VALUE": 116
  },
  {
    "MOLECULE": "COc1ccc(C2c3[nH]c4ccccc4c3CCN2CC(=O)Nc2ccc(C)cc2)cc1 (stereo not drawn)",
    "TEST SYSTEM": "MOLM1 and UCSD/AML1 (averaged)",
    "ENDPOINT VALUE": 87.2
  },
  {
    "MOLECULE": "COc1ccc(/C=C/C(=O)O)cc1COc1ccccc1",
    "TEST SYSTEM": "MOLM1 and UCSD/AML1 (averaged)",
    "ENDPOINT VALUE": 101
  },
  {
    "MOLECULE": "COc1ccc(C=O)cc1COc1ccc2c(c1)CCC2",
    "TEST SYSTEM": "MOLM1 and UCSD/AML1 (averaged)",
    "ENDPOINT VALUE": 47.2
  }
]

Query molecule follows.
Query: cell viability; subject: N#CC1=C(N)Oc2cc(O)ccc2C1c1ccccc1 (stereo not drawn) 104
